# ASSAY OVERVIEW: chemical genetic growth profiling, strain panel (AID 1159580);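 also: tested at 20 µM; growth read once vehicle control cultures reached saturation at 30 °C; 1 = growth at the plate median or of vehicle wells; lower values mean less growth of the strain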
# APPLIED CONDITIONS: S. cerevisiae deletion strains, growth OD, locus YLR102C, strain apc9, hits give low values
Hit rate of the full screen: of about 5,500 compounds, about 2,000 (36%) were called active. Not shown: some 18% with an inconclusive outcome. Some of the results follow.
MEASUREMENT TYPE: normalized growth
Please give only the number in your answer, with no unit.

Check out these entries, answers already filled in.
COMPOUND: CC1CC2C3CC(F)C4=CC(=O)C=CC4(C)C3(F)C(O)CC2(C)C1(O)C(=O)CO (configuration not stated)
normalized growth: 1.02

COMPOUND: CCCCCCCCNC(C)C(O)c1ccc(SC(C)C)cc1 (configuration not stated)
normalized growth: 0.0595

COMPOUND: OCC(O)C(O)C(O)CO (configuration not stated)
normalized growth: 0.992

COMPOUND: NC(=O)c1ccc[n+]([C@@H]2O[C@H](COP(=O)([O-])OP(=O)(O)OC[C@H]3O[C@@H](n4cnc5c(N)ncnc54)[C@H](O)[C@@H]3O)[C@@H](O)[C@H]2O)c1
normalized growth: 0.989

COMPOUND: CC(=O)c1c(O)c(C)c(O)c2c1oc1c(C(C)=O)c(O)c(C)c(O)c12
normalized growth: 0.979

COMPOUND: CCS(=O)CCSP(=O)(OC)OC (configuration not stated)
normalized growth: 1

COMPOUND: COC1=C(OC)C(=O)C(C/C=C(\C)CC/C=C(\C)CC/C=C(\C)CC/C=C(/C)CC/C=C(\C)CC/C=C(\C)CC/C=C(\C)CC/C=C(\C)CC/C=C(\C)CCC=C(C)C)=C(C)C1=O
normalized growth: 0.994

COMPOUND: CCCCCCCCCCCCCCCC(=O)OC/C=C(C)/C=C/C=C(C)/C=C/C1=C(C)CCCC1(C)C
normalized growth: 0.993

Ask: Would you kindly share the measured normalized growth for CC(C)CC(NC(=O)C(Cc1ccccc1)NC(=O)CNC(=O)CNC(=O)C(N)Cc1ccc(O)cc1)C(=O)O (configuration not stated) ?
Reply: 0.994

Ask: Record: COc1cc2c(cc1OC)Cc1cc(OC)c(OC)cc1Cc1cc(OC)c(OC)cc1C2
Reply: 1.03

Ask: Same for CCOC(=O)[C@H](CCc1ccccc1)N[C@H]1CCc2ccccc2N(CC(=O)O)C1=O
Reply: 0.972

Ask: What about this compound? CC(NCCc1ccc(O)cc1)C(O)c1ccc(O)cc1 (configuration not stated)
Reply: 0.98
